# EXPERIMENTAL_TARGET: human D3 receptor (Homo sapiens)
# Sequence (P35462 whole entry): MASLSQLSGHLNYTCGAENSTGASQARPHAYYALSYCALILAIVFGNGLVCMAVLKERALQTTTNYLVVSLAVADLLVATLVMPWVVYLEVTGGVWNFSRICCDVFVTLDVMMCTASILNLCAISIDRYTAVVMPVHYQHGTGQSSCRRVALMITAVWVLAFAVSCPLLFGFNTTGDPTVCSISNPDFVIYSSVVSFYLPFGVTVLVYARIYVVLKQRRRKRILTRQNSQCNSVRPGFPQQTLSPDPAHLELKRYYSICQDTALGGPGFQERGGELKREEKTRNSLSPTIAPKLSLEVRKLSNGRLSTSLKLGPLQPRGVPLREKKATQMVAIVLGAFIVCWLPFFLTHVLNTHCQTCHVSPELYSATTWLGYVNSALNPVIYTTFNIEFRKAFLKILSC
EXPERIMENTAL_READOUT: Ki
Your answer should be a number followed by the unit of measure.

**Q:** Looking for the measured Ki of "COc1c(C(=O)NCCN2CCN(c3ccccc3)CC2)cc(Br)c2ccccc12" , can you help?
**A:** 26 nM
